Target: Recombinant human CSF1R kinase (Homo sapiens (Human), UniProt P07333)
Sequence (P07333 20-972): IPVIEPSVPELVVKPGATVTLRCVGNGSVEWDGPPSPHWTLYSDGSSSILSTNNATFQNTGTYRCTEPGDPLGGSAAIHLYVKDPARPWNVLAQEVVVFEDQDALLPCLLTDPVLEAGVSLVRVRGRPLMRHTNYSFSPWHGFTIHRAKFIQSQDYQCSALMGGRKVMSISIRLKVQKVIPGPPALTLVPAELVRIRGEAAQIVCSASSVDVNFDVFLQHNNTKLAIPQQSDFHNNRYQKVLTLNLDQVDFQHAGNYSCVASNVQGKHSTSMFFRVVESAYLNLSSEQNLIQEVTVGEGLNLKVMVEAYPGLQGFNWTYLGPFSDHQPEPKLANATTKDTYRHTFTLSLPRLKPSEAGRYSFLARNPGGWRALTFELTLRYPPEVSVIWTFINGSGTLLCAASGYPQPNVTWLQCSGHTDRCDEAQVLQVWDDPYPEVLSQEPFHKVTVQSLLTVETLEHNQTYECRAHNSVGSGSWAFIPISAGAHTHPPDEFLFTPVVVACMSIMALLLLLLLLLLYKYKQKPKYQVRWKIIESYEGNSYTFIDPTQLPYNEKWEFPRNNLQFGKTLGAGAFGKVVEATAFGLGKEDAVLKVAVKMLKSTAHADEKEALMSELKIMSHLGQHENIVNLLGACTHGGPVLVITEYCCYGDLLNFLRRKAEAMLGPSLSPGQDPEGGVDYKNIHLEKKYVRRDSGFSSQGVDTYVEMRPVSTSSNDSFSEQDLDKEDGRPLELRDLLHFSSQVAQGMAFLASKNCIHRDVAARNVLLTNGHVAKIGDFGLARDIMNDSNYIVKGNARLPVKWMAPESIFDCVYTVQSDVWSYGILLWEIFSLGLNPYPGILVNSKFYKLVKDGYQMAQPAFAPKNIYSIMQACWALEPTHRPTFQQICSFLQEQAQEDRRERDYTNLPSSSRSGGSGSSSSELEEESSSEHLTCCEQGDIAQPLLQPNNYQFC
Test: Measurement of CSF1R kinase activity at molecular level (Z-LYTE)
Conditions: Z-LYTE Tyr 1 peptide
Procedure: Invitrogen, PV3227; • Development reagent B: Invitrogen, PV3295; • Development buffer: Invitrogen. P3127; • Stopping solution: Invitrogen, P3094; • Recombinant human CSF1R kinase: Invitrogen, P[…]; • 384 well plate, black: Corning. […] 3) Reaction Stopping and Plate Reading 5 μL of stopping solution was added to each well. The Coumarin value (excitation at 400 nm, emission at 445 nm) and Fluorescein value (excitation at 400 nm, emission at 520 nm) were measured, respectively. […]
measurement label: pIC50
Numbers only, as −log10 of the molar value.

Some entries whose results are on file:
molecule: COc1ccc([C@H]2COc3cc(Oc4ccc5nccc(=O)n5c4)cnc3O2)cc1 [Compound 64]
pIC50: 8.00
//
molecule: COc1cc(Oc2ccnc(-c3cnn(C)c3)c2)cnc1OCc1ccc(C2CC2)cc1 [Compound 12]
pIC50: 7.89
//
molecule: O=c1ccnc2ccc(Oc3cnc4c(c3)OCC(c3ccc(C5CC5)cc3)O4)cn12 (racemic) [Compound 55]
pIC50: 8.10
//
molecule: COc1cc(Oc2ccc3nccc(=O)n3c2)cnc1OCc1ccc(C2CC2)cc1 [Compound 25]
pIC50: 8.10
//
molecule: Cn1cc(-c2cc(Oc3cnc4c(c3)OCC(c3ccc(C5CC5)cc3)O4)ccn2)cn1 (racemic) [Compound 48]
pIC50: 8.30

Need pIC50 for each of these molecules.
1. COc1cc(Oc2ccc3ncc(C)c(=O)n3c2)cnc1OCc1ccc(C)cc1 [Compound 44]
2. COc1cc(Oc2ccc3ncc(N)c(=O)n3c2)cnc1OCc1ccc(C2CC2)cc1 [Compound 22]
3. COc1ccc(COc2ncc(Oc3ccc4ncc(C)c(=O)n4c3)cn2)cc1 [Compound 29]

Out:
1: 8.40; 2: 7.92; 3: 8.22
